Target: T1, KLHL3 Kelch domain (a.a. 298–587) (human, UniProt Q9UH77-1 298-587)
T1 chain: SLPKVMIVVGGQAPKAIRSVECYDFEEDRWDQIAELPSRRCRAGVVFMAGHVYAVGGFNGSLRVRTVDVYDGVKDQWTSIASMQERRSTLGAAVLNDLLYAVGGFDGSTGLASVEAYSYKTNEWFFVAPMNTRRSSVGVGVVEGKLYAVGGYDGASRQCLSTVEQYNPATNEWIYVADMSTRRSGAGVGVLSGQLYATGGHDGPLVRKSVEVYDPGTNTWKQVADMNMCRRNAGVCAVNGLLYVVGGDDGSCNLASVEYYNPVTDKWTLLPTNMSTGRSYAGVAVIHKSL
Test: FP; 37 mM Cl-
Ends that are not written are not given here. Rhodamine‑110 = fluorophore on the N-terminus
MEASUREMENT_TYPE: Kd (nM)
Numbers only; they are read as nM.

• {Rhodamine‑110}-EPEEPEADQHQ (WNK4 acidic degron motif, residues 557–567; also called 11-residue degron from WNK4; source: synthetic peptide (Fmoc solid phase, purified by HPLC)) [Rhodamine-110 labelled WNK4 degron peptide (EPEEPEADQHQ)] = 600

Then this binder:
binder {Rhodamine‑110}-ECEETEVDQHV [Rhodamine-110 labelled WNK3 degron peptide (ECEETEVDQHV)] , Kd observed: 1500
